System: H37Rv strain of M. tuberculosis
Test: Alamar Blue Susceptibility Test (MABA)
Type: cell-based
Details: Mycobacterium tuberculosis; H37Rv strain of M. tuberculosis; Alamar Blue; read-out: MABA (TB growth inhibition, colourimetric assay)
Listed below: MIC values for each entry.
property.label: MIC

- Fc1ccc(CNc2nc(N3CCCC3)nc3cccc(Cl)c23)cc1 [Compound 182]: 10 to 50 µM
- Fc1ccc(C2(Nc3nc(N4CCC(F)(F)CC4)nc4ccccc34)CC2)cc1 [Compound 153]: 50 to 128 µM
- Cc1ccc(CNc2nc(N3CCCCC3)nc3ccccc23)cc1 [Compound 43]: < 10 µM
- c1ccc(CCCNc2nc(N3CCCCC3)nc3ccccc23)cc1 [Compound 95]: < 10 µM
- CC(Nc1nc(N2CCNCC2)nc2ccccc12)c1ccccc1 (centres unmarked) [Compound 8]: 50 to 128 µM

---

System: H37Rv strain of M. tuberculosis
Assay: Alamar Blue Susceptibility Test (MABA)
Format: cell-based
Settings: Mycobacterium tuberculosis; H37Rv strain of M. tuberculosis; Alamar Blue; read-out: MABA (TB growth inhibition, colourimetric assay)
Where a name gives a salt, the structure may show the parent alone.
Listed below: MIC values for each entry.
property.label: MIC

* FC(F)(F)c1ccc(CNc2nc(N3CCCC3)nc3ccccc23)cc1 | < 10 µM
* OC[C@H](Cc1ccccc1)Nc1nc(N2CCCCC2)nc2ccccc12 [Compound 143, hydrochloride] | 10 to 50 µM
* COc1ccc(CNc2nc(NCc3ccccc3)c3ccccc3n2)cc1 [Compound 129, hydrochloride] | 10 to 50 µM
* Fc1ccc(CNc2nc(N3CCOCC3)nc3ccccc23)cc1 | 10 to 50 µM
* c1ccc(C2(Nc3nc(N4CCCC4)nc4ccccc34)CCCCC2)cc1 | 50 to 128 µM
